molecular target: HSP-90 (Homo sapiens, UniProt P07900); construct: fused on or other part: 6-His tag at the C-terminus; experiment: HSP-90 SPA (scintillation proximity assay) competition binding assay, displacement of tritiated propyl-Geldanamycin; settings: read-out: % inhibition @ 10 μM
Reported property: inhibition at 10 µM (%)

INSERT INTO results (compound, measured_number) VALUES
  ('O=C(c1ccc(O)cc1O)N1CCCC1c1ccc(Cl)cc1 (stereo not drawn) [Example 84]', 89.8),
  ('COc1ccccc1OC1CCN(C(=O)c2ccc(O)cc2O)CC1 [Example 72]', 62.4),
  ('O=C(c1ccc(O)cc1O)N1CCC(Oc2ccccc2)CC1 [Example 71]', 79.3),
  ('CN(Cc1nnc(-c2cccc(C#N)c2)o1)C(=O)c1ccc(O)cc1O [Example 121]', 64.6),
  ('Cc1ccc(OC2CCN(C(=O)c3ccc(O)cc3O)CC2)cc1 [Example 74]', 80.7),
  ('CCOc1cc2c(cc1OCC)CN(C(=O)c1ccc(O)cc1O)CC2 [Example 56]', 73),
  ('O=C(c1cc2ccccc2cc1O)N1Cc2ccccc2C1 [Example 24]', 34.9),
  ('O=C(c1cc(-c2ccc(F)cc2F)ccc1O)N1Cc2ccccc2C1 [Example 28]', 76.2),
  ('O=C(c1ccc(O)cc1O)N1CCC(c2ccc(F)cc2)C1 (stereo not drawn) [Example 95]', 70.3),
  ('O=C(c1ccc(O)cc1O)N1CCC(O)(c2ccc(Cl)cc2)CC1 [Example 76]', 81),
  ('O=C(c1ccc(O)cc1O)N1CCN(c2cnccn2)CC1 [Example 111]', 64.2),
  ('O=C(c1ccc(O)cc1O)N1CCCCC1c1cccc(F)c1 (stereo not drawn) [Example 57]', 88.2);

* * *

Measured inhibition at 1 µM, listed per entry for reference.
target: HSP-90 (Homo sapiens, UniProt P07900); construct: fused on or other part: 6-His tag at the C-terminus; test: HSP-90 SPA (scintillation proximity assay) competition binding assay, displacement of tritiated propyl-Geldanamycin; settings: read-out: % inhibition @ 1 μM
Reported property: inhibition at 1 µM (%)

INSERT INTO assay_data (molecule, tested_on, reported_property, measured_number) VALUES
  ('O=C(c1cc(-c2ccncn2)ccc1O)N1Cc2ccccc2C1', 'HSP-90 (Homo sapiens, UniProt P07900)', 'inhibition at 1 µM', -11.9),
  ('O=C(c1ccc(O)cc1O)N1CCC(CCc2cnccn2)CC1', 'HSP-90 (Homo sapiens, UniProt P07900)', 'inhibition at 1 µM', 43.4),
  ('O=C(c1cc(-c2ccc(F)cc2F)ccc1O)N1Cc2ccccc2C1', 'HSP-90 (Homo sapiens, UniProt P07900)', 'inhibition at 1 µM', 50.8),
  ('O=C(c1ccc(O)cc1O)N1CCCC(COc2cccc(Cl)c2)C1 (stereo not drawn)', 'HSP-90 (Homo sapiens, UniProt P07900)', 'inhibition at 1 µM', 58.6),
  ('O=C(c1ccc(O)cc1O)N1CCC(O)(c2ccccc2)CC1', 'HSP-90 (Homo sapiens, UniProt P07900)', 'inhibition at 1 µM', 44.6),
  ('COc1ccccc1OC1CCN(C(=O)c2ccc(O)cc2O)CC1', 'HSP-90 (Homo sapiens, UniProt P07900)', 'inhibition at 1 µM', 13.2),
  ('CCOc1cc2c(cc1OCC)CN(C(=O)c1ccc(O)cc1O)CC2', 'HSP-90 (Homo sapiens, UniProt P07900)', 'inhibition at 1 µM', 27),
  ('Cc1ccccc1C1(O)CCN(C(=O)c2ccc(O)cc2O)C1 (stereo not drawn)', 'HSP-90 (Homo sapiens, UniProt P07900)', 'inhibition at 1 µM', 35.9),
  ('O=C(c1ccc(O)cc1O)N1CCOC(COc2cccc(Cl)c2)C1 (stereo not drawn)', 'HSP-90 (Homo sapiens, UniProt P07900)', 'inhibition at 1 µM', 55.3),
  ('O=C(c1ccc(O)cc1O)N1CCC(CCc2ncccn2)CC1', 'HSP-90 (Homo sapiens, UniProt P07900)', 'inhibition at 1 µM', 44.9),
  ('CN(Cc1nc2ccccc2o1)C(=O)c1ccc(O)cc1O', 'HSP-90 (Homo sapiens, UniProt P07900)', 'inhibition at 1 µM', 25.5),
  ('O=C(c1ccc(O)cc1O)N1CCC(O)(c2ccc(Cl)cc2)CC1', 'HSP-90 (Homo sapiens, UniProt P07900)', 'inhibition at 1 µM', 48.4),
  ('Cc1ccc(C(=O)N2Cc3ccccc3C2)c(O)c1', 'HSP-90 (Homo sapiens, UniProt P07900)', 'inhibition at 1 µM', 0.2),
  ('O=C(c1ccc(O)cc1O)N1CCOCC2(CC(c3ccc(F)cc3)=NO2)C1 (stereo not drawn)', 'HSP-90 (Homo sapiens, UniProt P07900)', 'inhibition at 1 µM', 76.2),
  ('CC(C)CN(C)C(=O)c1ccc(O)cc1O', 'HSP-90 (Homo sapiens, UniProt P07900)', 'inhibition at 1 µM', 11.3),
  ('O=C(c1ccc(O)cc1O)N1CCC(CCc2cccc(Cl)c2)CC1', 'HSP-90 (Homo sapiens, UniProt P07900)', 'inhibition at 1 µM', 63.3),
  ('O=C(c1ccc(O)cc1O)N1CCSCC1', 'HSP-90 (Homo sapiens, UniProt P07900)', 'inhibition at 1 µM', 42.6),
  ('O=C(c1ccc(O)cc1O)N1CCOC(COc2ccccc2)C1 (stereo not drawn)', 'HSP-90 (Homo sapiens, UniProt P07900)', 'inhibition at 1 µM', 48.1),
  ('O=C(c1ccc(O)cc1O)N1CCN(c2nc(-c3ccccc3C(F)(F)F)cc(=O)[nH]2)CC1', 'HSP-90 (Homo sapiens, UniProt P07900)', 'inhibition at 1 µM', 35.9),
  ('Cc1nc2c(s1)CN(C(=O)c1ccc(O)cc1O)CC2', 'HSP-90 (Homo sapiens, UniProt P07900)', 'inhibition at 1 µM', 33.9),
  ('COC(=O)C1CCN(C(=O)c2ccc(O)cc2O)C1 (stereo not drawn)', 'HSP-90 (Homo sapiens, UniProt P07900)', 'inhibition at 1 µM', 21.1),
  ('O=C(c1ccc(O)cc1O)N1CCCN(c2nc3cc(Cl)ccc3o2)CC1', 'HSP-90 (Homo sapiens, UniProt P07900)', 'inhibition at 1 µM', 4.3),
  ('O=C(c1ccc(O)cc1O)N1CCC(COc2ccc(F)cc2Cl)C1 (stereo not drawn)', 'HSP-90 (Homo sapiens, UniProt P07900)', 'inhibition at 1 µM', 45.7),
  ('O=C(c1ccc(O)cc1O)N1CC=CCC1', 'HSP-90 (Homo sapiens, UniProt P07900)', 'inhibition at 1 µM', 62.7),
  ('O=C(c1ccc(O)cc1O)N1CCC(CCc2cncnc2)CC1', 'HSP-90 (Homo sapiens, UniProt P07900)', 'inhibition at 1 µM', 34.6),
  ('COCc1nccc(C2CCCN(C(=O)c3ccc(O)cc3O)C2)n1 (stereo not drawn)', 'HSP-90 (Homo sapiens, UniProt P07900)', 'inhibition at 1 µM', 5.9),
  ('O=C(c1ccc(O)cc1O)N1CCC(c2ccccc2)(c2ccccc2)CC1', 'HSP-90 (Homo sapiens, UniProt P07900)', 'inhibition at 1 µM', 50.3),
  ('CN(Cc1nnc(-c2cccc(C#N)c2)o1)C(=O)c1ccc(O)cc1O', 'HSP-90 (Homo sapiens, UniProt P07900)', 'inhibition at 1 µM', 10.6),
  ('O=C(c1ccc(O)cc1O)N1CCOCC2(CC(c3cc(F)cc(F)c3)=NO2)C1 (stereo not drawn)', 'HSP-90 (Homo sapiens, UniProt P07900)', 'inhibition at 1 µM', 31.2),
  ('O=C(c1ccc(O)cc1O)N1CCC(O)(c2ccc(Cl)c(C(F)(F)F)c2)CC1', 'HSP-90 (Homo sapiens, UniProt P07900)', 'inhibition at 1 µM', 17.7),
  ('O=C1CC2(CCN(C(=O)c3ccc(O)cc3O)CC2)Oc2ccccc21', 'HSP-90 (Homo sapiens, UniProt P07900)', 'inhibition at 1 µM', 52.1),
  ('O=C(c1ccc(O)cc1O)N1CCOCC(O)(COCC2CC2)C1 (stereo not drawn)', 'HSP-90 (Homo sapiens, UniProt P07900)', 'inhibition at 1 µM', 27.4),
  ('COc1ccc(CCN(C)C(=O)c2ccc(O)cc2O)cc1OC', 'HSP-90 (Homo sapiens, UniProt P07900)', 'inhibition at 1 µM', 9.8),
  ('O=C(c1ccc(O)cc1O)N1CCN(c2nc3ccc(Cl)cc3o2)CC1', 'HSP-90 (Homo sapiens, UniProt P07900)', 'inhibition at 1 µM', 22.4),
  ('Cc1cccc(N2CCN(C(=O)c3ccc(O)cc3O)CC2)n1', 'HSP-90 (Homo sapiens, UniProt P07900)', 'inhibition at 1 µM', 21.8),
  ('Cc1ccc2c(c1)C=CC1(CCN(C(=O)c3ccc(O)cc3O)CC1)O2', 'HSP-90 (Homo sapiens, UniProt P07900)', 'inhibition at 1 µM', 62.8),
  ('CN(Cc1ccccc1Cl)C(=O)c1ccc(O)cc1O', 'HSP-90 (Homo sapiens, UniProt P07900)', 'inhibition at 1 µM', 53),
  ('Cc1cc(C)c2c(c1)CCC1(CCN(C(=O)c3ccc(O)cc3O)CC1)O2', 'HSP-90 (Homo sapiens, UniProt P07900)', 'inhibition at 1 µM', 51.6),
  ('O=C(c1cc(-c2cc[nH]n2)ccc1O)N1Cc2ccccc2C1', 'HSP-90 (Homo sapiens, UniProt P07900)', 'inhibition at 1 µM', 2);
